- Tested Target: HIV-1 JR-CSF Env K305A (HIV-1 JR-CSF) (UniProt P20871)
- Procedure Text: cell-based or functional assay
Measurement Label: Fold IC50 increase relative to wild-type (fold)

>  <Binder>
PGT-135 (antibody, V domains shown) VH: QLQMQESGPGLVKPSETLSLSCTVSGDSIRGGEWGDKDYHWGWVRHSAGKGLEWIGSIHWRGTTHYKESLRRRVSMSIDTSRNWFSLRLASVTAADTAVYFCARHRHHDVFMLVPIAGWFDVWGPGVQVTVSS VL: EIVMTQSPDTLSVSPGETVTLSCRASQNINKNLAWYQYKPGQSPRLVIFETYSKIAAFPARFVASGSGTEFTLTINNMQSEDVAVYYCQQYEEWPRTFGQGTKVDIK

>  <Measure Unit>
fold

>  <Test Value>
0.2

$$$$
